Source of measurements: ChEMBL document CHEMBL5058577

Test system: U2OS
Assay: Multiplex assay against U2OS
Assay type: toxicity, cell-based
Conditions: human, 12 h, 1 µM, compound concentration 1 uM, replicate 2
experimental readout: Population Fragmented Nuclei (%)
State the result as a value with its unit after it.

{"columns": ["compound", "Population Fragmented Nuclei (%)"],
 "data": [
  ["CN[C@@H](C)C(=O)N[C@H](C(=O)N1CCC[C@H]1C(=O)Nc1snnc1-c1ccccc1)C1CCCCC1", "21%"],
  ["Cc1sc2c(c1C)C(c1ccc(Cl)cc1)=N[C@@H](CC(=O)NCCCCCCCCNC(=O)COc1cccc3c1C(=O)N(C1CCC(=O)NC1=O)C3=O)c1nnc(C)n1-2 (stereo partly drawn)", "13%"],
  ["COc1ccccc1N1CCN(C[C@@H](C(=O)NC(C)(C)C)c2ccccc2)CC1.Cl.Cl", "14%"]
]}

// input: 4 compounds below; output: Population Fragmented Nuclei (%) for each
1. Br.CS(=O)(=O)Nc1c(O)ccc2c1CCCC2C1=NCCN1 (stereo not drawn)
2. O=C(NCCN1CCC(n2c(=O)[nH]c3cc(Cl)ccc32)CC1)c1ccc(F)cc1 [HALOPEMIDE]
3. COC[C@@H](c1ccc(C(F)(F)F)cc1)N1CCN(C2(C)CCN(C(=O)c3c(C)ncnc3C)CC2)C[C@@H]1C.O=C(O)/C=C\C(=O)O [VICRIVIROC MALEATE]
4. CCCOc1ccc2[nH]cc(C3=CCNCC3)c2n1.Cl

Response:
13%
13%
21%
13%

// input: 5 compounds below; output: Population Fragmented Nuclei (%) for each
1. CCCCC1=NC2(CCCC2)C(=O)N1Cc1ccc(-c2ccccc2-c2nnn[nH]2)cc1
2. Cc1onc(-c2ccccc2Cl)c1C(=O)N(C)c1ccc(Cl)cc1
3. Cc1c(CC(=O)O)c2cccnc2n1Cc1ccc(S(C)(=O)=O)cc1C(F)(F)F
4. Cl.NCCc1ccc(O)c(O)c1 [DOPAMINE HYDROCHLORIDE]
5. CCCCC(=O)N(Cc1ccc(-c2ccccc2-c2nnn[nH]2)cc1)[C@H](C(=O)O)C(C)C

Response:
1. 9%
2. 10%
3. 22%
4. 15%
5. 15%

// input: 2 compounds below; output: Population Fragmented Nuclei (%) for each
1. C[C@H](N)COC(=O)[C@@H](CCCCN)NC(=O)Cc1c(-c2ccc3ccccc3c2)[nH]c2c1ccc1ccccc12
2. CN1CCN(c2cc(-c3ccccc3)nc(N)n2)CC1

Response:
1: 14%; 2: 17%

// input: 4 compounds below; output: Population Fragmented Nuclei (%) for each
1. CC[C@@H](C)Nc1nc(C)nc2c(-c3ccc(OC)nc3C)c(C)nn12
2. N#Cc1cc(F)cc(-c2nc(-c3ccc(F)cn3)no2)c1
3. O=C(CCCc1ccccc1)Nc1nc2ccccc2c(=O)s1
4. CN(C)C(=O)Cn1cc(-c2ccc(-c3cncc4ccccc34)cc2)cn1

Response:
["17%", "17%", "17%", "18%"]

* * *

Task for the reader: assign each of the following compounds its reported Population Normal (%).
System: Fibroblast
Test: Multiplex assay against human fibroblast
Type: toxicity, cell-based
Settings: 12 h, 1 µM, compound concentration 1 uM, replicate 1
State the result as a value with its unit after it.

Please review the entries below; each comes with its answer.
{"columns": ["compound", "experimental readout", "reading"],
 "data": [
  ["Cl.NCCc1ccc(O)c(O)c1 [DOPAMINE HYDROCHLORIDE]", "Population Normal (%)", "98%"],
  ["O=C(NCCN1CCC(n2c(=O)[nH]c3cc(Cl)ccc32)CC1)c1ccc(F)cc1 [HALOPEMIDE]", "Population Normal (%)", "99%"],
  ["CC(C)c1noc(N2CCC(COc3ccc(-c4ccc(S(C)(=O)=O)cc4)nc3)CC2)n1", "Population Normal (%)", "97%"]
]}

// input: 3 compounds below; output: Population Normal (%) for each
1. CC(=O)Nc1cccc2c1c(Sc1ccc(Cl)cc1)c(C)n2CC(=O)O
2. CCCCC1=NC2(CCCC2)C(=O)N1Cc1ccc(-c2ccccc2-c2nnn[nH]2)cc1
3. Cc1cccc(NC(=O)CN2CCC(c3ccccn3)CC2)c1.Cl.Cl

Response:
98%
98%
95%

* * *

Tested on: Fibroblast
Experiment: Multiplex assay against human fibroblast
Type: toxicity, cell-based
Conditions: 24 h, 1 µM, compound concentration 1 uM, replicate 1
experimental readout: Population Fragmented Nuclei (%)
Give bare numbers, in %.

Please review the entries below; each comes with its answer.
{"columns": ["molecule", "Population Fragmented Nuclei (%)"],
 "data": [
  ["COc1cccc2c1c(NS(=O)(=O)c1ccc(Cl)s1)nn2Cc1cccc(CNC(=O)C(C)(C)O)c1", 19],
  ["CN(C)C(=O)Cn1cc(-c2ccc(-c3cncc4ccccc34)cc2)cn1", 12],
  ["O=C(NCCN1CCC(n2c(=O)[nH]c3cc(Cl)ccc32)CC1)c1ccc(F)cc1 [HALOPEMIDE]", 16],
  ["CC(C)c1noc(N2CCC(COc3ccc(-c4ccc(S(C)(=O)=O)cc4)nc3)CC2)n1 [GSK-1292263]", 9]
]}

Now take the following molecule into account.
Request: # query: Population Fragmented Nuclei (%) of entry CC[C@@H](C)Nc1nc(C)nc2c(-c3ccc(OC)nc3C)c(C)nn12 [PEXACERFONT]
Response: 16

* * *

Test system: HEK-293T
Test: Multiplex assay against HEK293T
Format: toxicity, cell-based
Settings: human, 48 h, 1 µM, compound concentration 1 uM, replicate 2
experimental readout: Population Mitochondria Different-Phenotype (%)

Please review the entries below; each comes with its answer.
{"columns": ["compound", "reading"],
 "data": [
  ["CCCCC1=NC2(CCCC2)C(=O)N1Cc1ccc(-c2ccccc2-c2nnn[nH]2)cc1", "19%"],
  ["CC(C)COc1ccc(CNC(=O)N(Cc2ccc(F)cc2)C2CCN(C)CC2)cc1", "33%"],
  ["N#Cc1cc(F)cc(-c2nc(-c3ccc(F)cn3)no2)c1", "18%"],
  ["Cl.N=C(N)NC(=O)Cc1c(Cl)cccc1Cl [GUANFACINE HYDROCHLORIDE]", "32%"]
]}

Now take the following compound into account.
Request: # query: Population Mitochondria Different-Phenotype (%) of entry Cc1noc(-c2ccc(-c3ccc(CC(=O)O)cc3)cc2)c1NC(=O)O[C@H](C)c1ccccc1Cl
Response: 34%

* * *

Task for the reader: assign each of the following compounds its reported Population Tubulin-Different-Phenotype (%).
Test system: HEK-293T
Assay: Multiplex assay against HEK293T
Assay type: toxicity, cell-based
Conditions: human, 24 h, 10 µM, compound concentration 10 uM, replicate 1
Give bare numbers, in %.

// input: 4 compounds below; output: Population Tubulin-Different-Phenotype (%) for each
1. CC(C)COc1ccc(CNC(=O)N(Cc2ccc(F)cc2)C2CCN(C)CC2)cc1 [PIMAVANSERIN]
2. CCCCC1=NC2(CCCC2)C(=O)N1Cc1ccc(-c2ccccc2-c2nnn[nH]2)cc1 [IRBESARTAN]
3. C[C@H](N)COC(=O)[C@@H](CCCCN)NC(=O)Cc1c(-c2ccc3ccccc3c2)[nH]c2c1ccc1ccccc12
4. COC[C@@H](c1ccc(C(F)(F)F)cc1)N1CCN(C2(C)CCN(C(=O)c3c(C)ncnc3C)CC2)C[C@@H]1C.O=C(O)/C=C\C(=O)O [VICRIVIROC MALEATE]

Response:
1. 77
2. 32
3. 45
4. 49

Request: # query: Population Tubulin-Different-Phenotype (%) of entry Cc1onc(-c2ccccc2Cl)c1C(=O)N(C)c1ccc(Cl)cc1
Response: 20

* * *

Tested on: HEK-293T
Assay: Multiplex assay against HEK293T
Format: toxicity, cell-based
Conditions: human, 12 h, 1 µM, compound concentration 1 uM, replicate 1
experimental readout: Population Tubulin-Different-Phenotype (%)
One number for each entry, in %.

Please review the entries below; each comes with its answer.
{"columns": ["compound", "reading"],
 "data": [
  ["Cc1noc(-c2ccc(-c3ccc(CC(=O)O)cc3)cc2)c1NC(=O)O[C@H](C)c1ccccc1Cl", 29],
  ["CC(=O)Nc1cccc2c1c(Sc1ccc(Cl)cc1)c(C)n2CC(=O)O", 28],
  ["CCc1cc2cc(NS(=O)(=O)c3ccc(C#N)cc3)ccc2n(CC)c1=O", 28]
]}

// input: 4 compounds below; output: Population Tubulin-Different-Phenotype (%) for each
1. COc1cccc2c1c(NS(=O)(=O)c1ccc(Cl)s1)nn2Cc1cccc(CNC(=O)C(C)(C)O)c1
2. CCCCC(=O)N(Cc1ccc(-c2ccccc2-c2nnn[nH]2)cc1)[C@H](C(=O)O)C(C)C
3. Cc1cccc(NC(=O)CN2CCC(c3ccccn3)CC2)c1.Cl.Cl
4. CC(C)(C)c1cc(NC(=O)Nc2ccc(-c3cn4c(n3)sc3cc(OCCN5CCOCC5)ccc34)cc2)no1

Response:
[26, 16, 33, 35]

* * *

Tested on: HEK-293T
Assay: Multiplex assay against HEK293T
Assay type: toxicity, cell-based
Conditions: human, 48 h, 10 µM, compound concentration 10 uM, replicate 1
Task for the reader: assign each of the following molecules its reported Population Mitochondria Different-Phenotype (%).
One number for each entry, in %.

Please review the entries below; each comes with its answer.
{"columns": ["molecule", "system name", "reading"],
 "data": [
  ["Cl.NCCc1ccc(O)c(O)c1 [DOPAMINE HYDROCHLORIDE]", "HEK-293T", 24],
  ["Br.CS(=O)(=O)Nc1c(O)ccc2c1CCCC2C1=NCCN1 (stereo not given)", "HEK-293T", 22],
  ["O=C1[C@H](Cc2ccc(O)cc2)N2C(=O)CCN(C(=O)NCc3ccccc3)[C@H]2CN1Cc1cccc2ccccc12", "HEK-293T", 94],
  ["O=C(NCCN1CCC(n2c(=O)[nH]c3cc(Cl)ccc32)CC1)c1ccc(F)cc1 [HALOPEMIDE]", "HEK-293T", 57],
  ["CCc1cc2cc(NS(=O)(=O)c3ccc(C#N)cc3)ccc2n(CC)c1=O", "HEK-293T", 23]
]}

// input: 5 molecules below; output: Population Mitochondria Different-Phenotype (%) for each
1. Cc1onc(-c2ccccc2Cl)c1C(=O)N(C)c1ccc(Cl)cc1
2. CC(C)COc1ccc(CNC(=O)N(Cc2ccc(F)cc2)C2CCN(C)CC2)cc1
3. CC[C@@H](C)Nc1nc(C)nc2c(-c3ccc(OC)nc3C)c(C)nn12
4. CC(=O)Nc1cccc2c1c(Sc1ccc(Cl)cc1)c(C)n2CC(=O)O
5. NCCc1cn(S(=O)(=O)c2c(Cl)nc3sccn23)c2ccccc12.O=C(O)C(=O)O

Response:
1: 16; 2: 88; 3: 45; 4: 18; 5: 74

// input: 5 molecules below; output: Population Mitochondria Different-Phenotype (%) for each
1. CCCOc1ccc2[nH]cc(C3=CCNCC3)c2n1.Cl
2. CCCCC1=NC2(CCCC2)C(=O)N1Cc1ccc(-c2ccccc2-c2nnn[nH]2)cc1
3. O=C(CCCc1ccccc1)Nc1nc2ccccc2c(=O)s1
4. COc1cccc2c1c(NS(=O)(=O)c1ccc(Cl)s1)nn2Cc1cccc(CNC(=O)C(C)(C)O)c1
5. Cc1sc2c(c1C)C(c1ccc(Cl)cc1)=N[C@@H](CC(=O)NCCCCCCCCNC(=O)COc1cccc3c1C(=O)N(C1CCC(=O)NC1=O)C3=O)c1nnc(C)n1-2 (stereo not given in full)

Response:
41
21
21
25
51
